- testSystem: Steryl-sulfatase (Homo sapiens)
- measurementNotes: Inhibitory potency against recombinant human steroid sulfatase relative to compound 3 = 1

[
  {
    "compoundStructureString": "NS(=O)(=O)Oc1ccc2c(c1)oc1c3ccccc3oc(=O)c21",
    "qualifierSign": ">",
    "rIC50": 160
  },
  {
    "compoundStructureString": "Cc1cc(=O)oc2cc(OS(N)(=O)=O)ccc12",
    "qualifierSign": "=",
    "rIC50": 30
  },
  {
    "compoundStructureString": "Cc1c(-c2ccccc2)c(=O)oc2cc(OS(N)(=O)=O)ccc12",
    "qualifierSign": "=",
    "rIC50": 11
  },
  {
    "compoundStructureString": "NS(=O)(=O)Oc1ccc2c(c1)oc(=O)c1c3ccccc3oc21",
    "qualifierSign": "=",
    "rIC50": 5
  },
  {
    "compoundStructureString": "NS(=O)(=O)Oc1ccc2cc(-c3ccccc3)c(=O)oc2c1",
    "qualifierSign": "=",
    "rIC50": 48
  },
  {
    "compoundStructureString": "NS(=O)(=O)Oc1ccc2c(c1)oc(=O)c1c3ccc(O)cc3oc21",
    "qualifierSign": "=",
    "rIC50": 3.5
  },
  {
    "compoundStructureString": "Cc1c(-c2ccccc2)c(=O)oc2ccc(OS(N)(=O)=O)cc12",
    "qualifierSign": ">",
    "rIC50": 250
  },
  {
    "compoundStructureString": "NS(=O)(=O)Oc1ccc2cc(-c3nc4ccccc4s3)c(=O)oc2c1",
    "qualifierSign": ">",
    "rIC50": 250
  },
  {
    "compoundStructureString": "NS(=O)(=O)Oc1ccc2c(c1)oc(=O)c1ccccc12",
    "qualifierSign": "=",
    "rIC50": 3
  }
]
